# assay remarks: recombinant UMI read abundance after kanamycin selection (control-corrected) (log10(CPM+1)); higher = more efficient recombination; extreme values may be limits of the assay; sequences stand for … in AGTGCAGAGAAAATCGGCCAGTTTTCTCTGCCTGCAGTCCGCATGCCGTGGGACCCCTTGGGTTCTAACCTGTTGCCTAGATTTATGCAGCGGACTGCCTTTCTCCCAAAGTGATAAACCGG…AGGTTGGTTTCACT; site = the 11-nt donor;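 also: IS621 bridge recombinase in Escherichia coli cells against a fixed T5 target plasmid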
The sequences listed here are annotated with their recombinant UMI read abundance (log10).

- sequence input: "CGCCATACATGGACCGGTTTTCCCGGTAATCCGTATTTGCT (site CGCCCTACTAG)"
  recombinant UMI read abundance (log10): 0.00847
- sequence input: "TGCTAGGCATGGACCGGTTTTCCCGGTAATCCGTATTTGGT (site TGCTAGGCTAT)"
  recombinant UMI read abundance (log10): 0.0134
- sequence input: "CGAGCGACATGGACCGGTTTTCCCGGTAATCCGTATTTGTA (site CGAGCGACTTA)"
  recombinant UMI read abundance (log10): 2.3
- sequence input: "CTGTACCCATGGACCGGTTTTCCCGGTAATCCGTATTTGTA (site CTGTACCCTTA)"
  recombinant UMI read abundance (log10): 0.461
- sequence input: "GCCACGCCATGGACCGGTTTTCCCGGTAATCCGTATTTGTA (site GCCACGCCTTA)"
  recombinant UMI read abundance (log10): 0.289
- sequence input: "AGCTCAGCATGGACCGGTTTTCCCGGTAATCCGTATTTGGA (site AGCTCAGCTAC)"
  recombinant UMI read abundance (log10): 0.00904
- sequence input: "CTCTTGGCATGGACCGGTTTTCCCGGTAATCCGTATTTGGA (site CCCTTGGCTTC)"
  recombinant UMI read abundance (log10): 0.169
- sequence input: "TGGGAACCATGGACCGGTTTTCCCGGTAATCCGTATTTGAT (site AGGGAACCTAT)"
  recombinant UMI read abundance (log10): 0
- sequence input: "CACTTGGCATGGACCGGTTTTCCCGGTAATCCGTATTTGCT (site CACTTGGCTAG)"
  recombinant UMI read abundance (log10): 0

* * *

# assay remarks: recombinant UMI read abundance after kanamycin selection (control-corrected) (log10(CPM+1)); higher = more efficient recombination; extreme values may be limits of the assay; sequences stand for … in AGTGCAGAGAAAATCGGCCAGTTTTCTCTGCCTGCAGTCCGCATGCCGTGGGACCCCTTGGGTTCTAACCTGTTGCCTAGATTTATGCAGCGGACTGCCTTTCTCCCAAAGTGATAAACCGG…AGGTTGGTTTCACT; site = the 11-nt donor
Please mark Fulfilled if the recorded recombinant UMI read abundance (log10) is equal to or greater than 0.01, and Not fulfilled if it falls below.

- sequence input: "GAAGACTCATGGACCGGTTTTCCCGGTAATCCGTATTTGTT (site GAAGAGTCTAA)"
  class: "Not fulfilled"
- sequence input: "ACTAGTACATGGACCGGTTTTCCCGGTAATCCGTATTTGGT (site ACTAGTACTAC)"
  class: "Fulfilled"
- sequence input: "TAGCAATCATGGACCGGTTTTCCCGGTAATCCGTATTTGCG (site TAGTAATCTCG)"
  class: "Fulfilled"
- sequence input: "GTCTGCCCATGGACCGGTTTTCCCGGTAATCCGTATTTGCG (site GTCTGCCCTCG)"
  class: "Fulfilled"
- sequence input: "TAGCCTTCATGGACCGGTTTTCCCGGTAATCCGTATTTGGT (site TAGCCATCTAC)"
  class: "Not fulfilled"
